# test.settings: in n-butanol, 293.15 K
experimental.endpoint: solubility (mole fraction)

Data request: Would you mind telling me what solubility (mole fraction) value was observed for CC(=O)Nc1ccc(OC(=O)c2ccccc2OC(C)=O)cc1 ?
Data returned: 0.000643

* * *

# test.settings: in ethanol, 313.15 K
experimental.endpoint: solubility (mole fraction)
Please reply with the value in numeric form only.

Data request: Form field: reported solubility (mole fraction) of CC(=O)Nc1ccc(OC(=O)c2ccccc2OC(C)=O)cc1
Data returned: 0.00155

* * *

# test.settings: in isopropyl acetate, 303.15 K
experimental.endpoint: solubility (mole fraction)

Data request: Quick check: solubility (mole fraction) of CC(=O)Nc1ccc(OC(=O)c2ccccc2OC(C)=O)cc1 ?
Data returned: 0.00145
